Experiment: in vitro
Settings: human, CAR-T cells

{"columns": ["compound", "unitAbbreviation", "viability at 4 day, 5 nM"],
 "data": [
  ["CCS(=O)(=O)N1CC(CC#N)(n2cc(-c3ncnc4[nH]ccc34)cn2)C1 [baricitinib]", "%", 67.4]
]}

----------
Consider the following compounds and their measured pIC50 readings.
Tested on: CD19 CAR T cells
Assay: CAR T cell cytokine production (Luminex) under CD19 K562, KIP-1 or CD2/3/28 stimulation
Settings: Homo sapiens, T-cell, 72 h, read-out: Suppression of cytokine production, IL-2Ra (IC50), KIP-1 stimulation, 72 h
pIC50: −log10 of the molar value.

{"columns": ["molSmiles", "measurementTarget", "pIC50"],
 "data": [
  ["N#CCC1(n2cc(-c3ncnc4[nH]ccc34)cn2)CN(C2CCN(C(=O)c3ccnc(C(F)(F)F)c3F)CC2)C1", "CD19 CAR T cells", "> 7.00"],
  ["CC[C@@H]1CN(C(=O)NCC(F)(F)F)C[C@@H]1c1cnc2cnc3[nH]ccc3n12", "CD19 CAR T cells", "> 7.00"],
  ["O=C(Nc1nc2cccc(-c3ccc(CN4CCS(=O)(=O)CC4)cc3)n2n1)C1CC1", "CD19 CAR T cells", 6.56]
]}

Provenance of the data: patent US12252701B2
